Test: Toxicity liver stage against HepG2, at 10uM
Type: cell-based
Design: test concentration 10 uM, cell line HepG2-A16-CD81EGFP
Settings: human, HepG2-A16-CD81EGFP cells; read-out: INHIBITION
observation-type: cytotoxicity at 10 µM (%)

[
  {
    "molecule": "CC(C#N)CN(C)C(=O)CCNC(=O)OC(C)(C)C (centres undefined)",
    "measured-result": 4.94
  },
  {
    "molecule": "CSc1ccc(C(=O)N2C[C@@H]3CC[C@H]2CN(Cc2ccccc2)C3)cc1",
    "measured-result": -5.49
  },
  {
    "molecule": "Cc1nc(CN2CCCC(NCc3ccsc3)C2)no1 (centres undefined)",
    "measured-result": 0.504
  },
  {
    "molecule": "Cc1cc(C)cc(CN2C[C@@H]3OCCN(S(=O)(=O)N(C)C)[C@@H]3C2)c1",
    "measured-result": 8.28
  },
  {
    "molecule": "CN(C)c1nc2c(c(=O)[nH]1)CCN(C(=O)C1CCCO1)C2 (centres undefined)",
    "measured-result": -43.3
  },
  {
    "molecule": "CCCN(CCC)C(=O)c1sc(C)nc1C",
    "measured-result": 3.05
  },
  {
    "molecule": "CN(CCCNC(=O)C1CCc2cn[nH]c2C1)c1ccccc1 (centres undefined)",
    "measured-result": -5.19
  },
  {
    "molecule": "C=C(C)CN1CCC(C(=O)c2cc(F)ccc2F)CC1",
    "measured-result": -14.1
  },
  {
    "molecule": "O=C(NCC1CCCCC1)N1C[C@@H]2C[C@@H]1CN2",
    "measured-result": -7.78
  },
  {
    "molecule": "Cc1nn(C)c2ncnc(N3CCCC(OCc4cccnc4)C3)c12 (centres undefined)",
    "measured-result": 12.8
  },
  {
    "molecule": "Cc1nn(C)c(N(C)C)c1CNCC(O)COc1cccc(F)c1 (centres undefined)",
    "measured-result": 6.2
  },
  {
    "molecule": "Cc1ccc(-c2cn3c(n2)CO[C@@H](CNCc2nccs2)C3)cc1",
    "measured-result": -7.31
  },
  {
    "molecule": "CC(=O)N1CCCCC1c1nc2c(c(NC3CCCC3)n1)CN(C)CC2 (centres undefined)",
    "measured-result": -13
  },
  {
    "molecule": "CC(=O)c1ccccc1C(=O)NCC1(CO)CC1",
    "measured-result": -18.9
  },
  {
    "molecule": "CCO[C@@H]1CO[C@@]2(CCCN(S(=O)(=O)c3ccccc3)C2)C1",
    "measured-result": -77.2
  },
  {
    "molecule": "Cc1nc(N2CCCC2)nc2c1CCN(C(=O)N1CCCC1)CC2",
    "measured-result": 1.82
  },
  {
    "molecule": "Cc1cc(C(=O)NC(C)CC(=O)c2ccco2)[nH]n1 (centres undefined)",
    "measured-result": -8.17
  },
  {
    "molecule": "Cc1nc(CNC(C(=O)N2CCOCC2)C(C)C)no1 (centres undefined)",
    "measured-result": 5.76
  },
  {
    "molecule": "Cc1nc2n(n1)CC(NCc1cc(Cl)c3c(c1)OCCCO3)CC2 (centres undefined)",
    "measured-result": -4.15
  },
  {
    "molecule": "Cc1cnc(NCc2ccc(S(=O)(=O)N(C)C(C)C)cc2)nc1C",
    "measured-result": 10.2
  },
  {
    "molecule": "COc1ccnc(N2C[C@@H](NS(=O)(=O)N(C)C)[C@H](C(C)C)C2)n1",
    "measured-result": -144
  },
  {
    "molecule": "CC(O)CN1CCN(C(=O)c2ccnc(N(C)C)c2)CC1 (centres undefined)",
    "measured-result": 4.37
  },
  {
    "molecule": "O=C1CN(C(=O)CC2C(=O)NCCN2CC2CCCCC2)CCN1 (centres undefined)",
    "measured-result": -7.41
  },
  {
    "molecule": "O=C([C@H]1C[C@H]2OCC[C@H]2N(Cc2ccco2)C1)N1CCCO1",
    "measured-result": 8.73
  },
  {
    "molecule": "Cc1noc(-c2ccc(N3CCN(Cc4ncccc4C)CC3)nc2)n1",
    "measured-result": -3.35
  },
  {
    "molecule": "CN(C)S(=O)(=O)N1CC[C@]2(C[C@@H](OCC3CC3)CO2)C1",
    "measured-result": 8.88
  },
  {
    "molecule": "O=S(=O)(Nc1ccc(N2CCOCC2)cc1)c1cccc(F)c1",
    "measured-result": 12
  },
  {
    "molecule": "O=C(C1CCOCC1)N1CCC2(CCC(C(=O)N3CCCC3)O2)CC1 (centres undefined)",
    "measured-result": 6.41
  },
  {
    "molecule": "NC(=O)COc1cccc(C(=O)N2CCCC(n3ccnc3)C2)c1 (centres undefined)",
    "measured-result": -9.63
  },
  {
    "molecule": "CCOCCC(=O)Nc1ccnn1-c1ccc(Cl)cc1",
    "measured-result": -12.6
  },
  {
    "molecule": "CSCc1noc(CNC(=O)C2CCN(C(=O)C3CCC3)CC2)n1",
    "measured-result": 6.35
  },
  {
    "molecule": "Cc1ccc(CN2C[C@@H]3COC[C@@H](CC(=O)N4CCOCC4)[C@@H]3C2)s1",
    "measured-result": -2.04
  },
  {
    "molecule": "CC(C(=O)NCc1ccc(N2CCNC(=O)C2)cc1)c1cccs1 (centres undefined)",
    "measured-result": -4.43
  },
  {
    "molecule": "COc1c(C(=O)NC(C)Cc2ccccc2Cl)c(C)nn1C (centres undefined)",
    "measured-result": -0.686
  },
  {
    "molecule": "Cc1cc2ccccc2n1CC(=O)Nc1ccnn1CC1CCOC1 (centres undefined)",
    "measured-result": 7.77
  },
  {
    "molecule": "CN(C)C(=O)CN1CCC2(COCc3cnc(-c4cccnc4)nc32)C1 (centres undefined)",
    "measured-result": -115
  },
  {
    "molecule": "CC(CCc1ccc(O)cc1)NC1CCN(C(=O)C(C)C)CC1 (centres undefined)",
    "measured-result": -4.89
  },
  {
    "molecule": "Cc1ccc(F)cc1NC(=O)CCn1cncn1",
    "measured-result": -0.639
  },
  {
    "molecule": "CN(C)CC(=O)Nc1ccc(C(=O)N(C)CCc2cn[nH]c2)cc1",
    "measured-result": 2.2
  }
]

* * *

Reported cytotoxicity at 10 µM values for a set of compounds
Test: Toxicity liver stage against HepG2, at 10uM
Format: cell-based
Design: test concentration 10 uM, cell line HepG2-A16-CD81EGFP
Conditions: human, HepG2-A16-CD81EGFP cells; read-out: INHIBITION

[
  {
    "compound": "CCc1nc(CC(=O)N2CCCC2c2c(C)nn(C)c2OC)cs1 (centres undefined)",
    "cytotoxicity at 10 µM (%)": -2.17
  },
  {
    "compound": "Cn1c(CO)cnc1SC(C(=O)NC1CC1)c1ccccc1 (centres undefined)",
    "cytotoxicity at 10 µM (%)": -56
  },
  {
    "compound": "COc1cccc(C(=O)C2CCCN(c3cc(C#N)ccn3)C2)c1 (centres undefined)",
    "cytotoxicity at 10 µM (%)": 1.85
  },
  {
    "compound": "O=C(c1cncs1)N1CCOC(c2cc(CCO)[nH]n2)C1 (centres undefined)",
    "cytotoxicity at 10 µM (%)": -0.49
  },
  {
    "compound": "COCc1noc(CCNC(=O)c2cc(C)c(C)[nH]c2=O)n1",
    "cytotoxicity at 10 µM (%)": -4.71
  },
  {
    "compound": "Cn1cc(CCN2CCOC(CNc3cccnn3)C2)cn1 (centres undefined)",
    "cytotoxicity at 10 µM (%)": 2.11
  },
  {
    "compound": "CS(=O)(=O)NCCNC(=O)C1(c2ccc(F)cc2)CC1",
    "cytotoxicity at 10 µM (%)": 1.93
  },
  {
    "compound": "Cc1ccc(S(=O)(=O)N2C[C@@H]3C[C@@H](NC(=O)C(C)(C)C)[C@@H]3C2)cc1",
    "cytotoxicity at 10 µM (%)": -3.81
  },
  {
    "compound": "O=C(CCc1ccncc1)N1CCc2cc(Cl)cc(Cl)c2C1",
    "cytotoxicity at 10 µM (%)": -24.3
  },
  {
    "compound": "CC(Cn1cccn1)NC(=O)NCCN1CCc2ccccc2C1 (centres undefined)",
    "cytotoxicity at 10 µM (%)": -4.45
  },
  {
    "compound": "CCc1nnc(CS(=O)(=O)c2ccc(C)cc2)n1C",
    "cytotoxicity at 10 µM (%)": 7.05
  },
  {
    "compound": "O=C1C[C@@H]2CC[C@H](CN1)N2C(=O)Cc1ccsc1",
    "cytotoxicity at 10 µM (%)": 1.6
  },
  {
    "compound": "Cc1ncccc1NC(=O)[C@@H]1CCO[C@@H]2CCN(c3ccccc3)C[C@@H]21",
    "cytotoxicity at 10 µM (%)": 6.7
  },
  {
    "compound": "Cc1ccc(-c2nc(CN3CCOC(Cn4cccn4)C3)no2)cc1 (centres undefined)",
    "cytotoxicity at 10 µM (%)": -8.93
  },
  {
    "compound": "Cc1ccc(Cn2nc(C)c3c(C(=O)O)c(Cl)c(C)nc32)cc1",
    "cytotoxicity at 10 µM (%)": 5.53
  },
  {
    "compound": "O=C(c1cnc(C2CC2)s1)N1CCCC(n2cccn2)C1 (centres undefined)",
    "cytotoxicity at 10 µM (%)": -13.9
  },
  {
    "compound": "O=C(NCC(F)F)N1CCC(n2ccc(C(F)(F)F)n2)CC1",
    "cytotoxicity at 10 µM (%)": -10.2
  },
  {
    "compound": "COc1cc(CNCc2c(C)nn(C)c2N(C)C)ccc1C",
    "cytotoxicity at 10 µM (%)": -9.16
  },
  {
    "compound": "Cc1nc(C(C)(C)NCc2nnc(C(C)C)o2)sc1C",
    "cytotoxicity at 10 µM (%)": 6.35
  },
  {
    "compound": "COCCCn1cnnc1CNC(=O)c1[nH]c2c(C)cc(C)cc2c1C",
    "cytotoxicity at 10 µM (%)": 5.22
  },
  {
    "compound": "CCc1cc(CNC(=O)N(C2CC2)C(C)c2ccco2)on1 (centres undefined)",
    "cytotoxicity at 10 µM (%)": -0.335
  },
  {
    "compound": "CN1CCOC(CNCCOc2cccc(C#N)c2)C1 (centres undefined)",
    "cytotoxicity at 10 µM (%)": 7.56
  },
  {
    "compound": "CC(=O)N1CCC(NC(=O)c2ccc3c(c2O)OC(C)(C)C3)CC1",
    "cytotoxicity at 10 µM (%)": 0.519
  },
  {
    "compound": "COCCN(Cc1sccc1C)C(=O)c1c(O)cccc1F",
    "cytotoxicity at 10 µM (%)": -137
  },
  {
    "compound": "Cc1nccn1CCCC(=O)Nc1nc(C(C)C)nn1C",
    "cytotoxicity at 10 µM (%)": -1.37
  },
  {
    "compound": "CCS(=O)(=O)N1CCC(c2nnc(C(F)(F)F)o2)CC1",
    "cytotoxicity at 10 µM (%)": -11
  },
  {
    "compound": "COc1ccccc1CNC(=O)CS(=O)(=O)Cc1ccccc1",
    "cytotoxicity at 10 µM (%)": 3.26
  },
  {
    "compound": "Cc1nc(CN(Cc2ccc3c(c2)OCCO3)C2CCCC2)no1",
    "cytotoxicity at 10 µM (%)": -9.19
  },
  {
    "compound": "N#Cc1cc(S(N)(=O)=O)ccc1NC1CCc2ccc(F)cc21 (centres undefined)",
    "cytotoxicity at 10 µM (%)": 8.08
  },
  {
    "compound": "O=C(Nc1cccnc1N1CCSCC1)c1cc2c(s1)CCCCC2",
    "cytotoxicity at 10 µM (%)": -3.25
  },
  {
    "compound": "COCCNC(=O)c1nc(NS(=O)(=O)c2ccccc2)sc1C",
    "cytotoxicity at 10 µM (%)": 9.18
  },
  {
    "compound": "O=C(Cc1ccccn1)N1C[C@H]2CN(Cc3ccccn3)C[C@H]2C1",
    "cytotoxicity at 10 µM (%)": -108
  },
  {
    "compound": "COCCNC(=O)[C@H]1CC[C@@H]2[C@@H](CCN2c2ncc(F)cn2)O1",
    "cytotoxicity at 10 µM (%)": -2.25
  },
  {
    "compound": "CCN1C(=O)CCC12CCC(NC(=O)c1cc(C)on1)CC2 (centres undefined)",
    "cytotoxicity at 10 µM (%)": -0.0663
  },
  {
    "compound": "Cc1cc(NC(=O)C(C)N2CCCN(c3nccs3)CC2)on1 (centres undefined)",
    "cytotoxicity at 10 µM (%)": 1.79
  },
  {
    "compound": "CNc1cc(N2CCCC2CNCc2ccccn2)ncn1 (centres undefined)",
    "cytotoxicity at 10 µM (%)": 7.31
  },
  {
    "compound": "CCc1nc2n(n1)CC(NCc1cc(OC)c3c(c1)OCCO3)CC2 (centres undefined)",
    "cytotoxicity at 10 µM (%)": -4.93
  },
  {
    "compound": "Cc1nc(CN2CCc3cc(C(=O)O)c(N(C)C)nc3CC2)cs1",
    "cytotoxicity at 10 µM (%)": 3.42
  },
  {
    "compound": "Cn1ccnc1SCCNC(=O)c1cc(S(N)(=O)=O)ccc1F",
    "cytotoxicity at 10 µM (%)": -3.45
  }
]
